target: KRAS WT (Homo sapiens, UniProt P01116+P62937); test: Disruption of BRAF RBD interaction with Ras (FRET / MOA assay, with Cyclophilin A); format: biochemical; conditions: KRAS WT; read-out: KRAS WT FRET data IC50
Sequence (P01116 1-169 isoform P01116-2 limits assumed): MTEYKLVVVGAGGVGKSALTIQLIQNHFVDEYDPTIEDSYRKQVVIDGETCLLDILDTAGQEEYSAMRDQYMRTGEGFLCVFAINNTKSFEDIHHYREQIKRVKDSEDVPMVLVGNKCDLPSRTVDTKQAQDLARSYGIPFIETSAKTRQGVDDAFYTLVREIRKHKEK
Sequence (P62937 whole entry): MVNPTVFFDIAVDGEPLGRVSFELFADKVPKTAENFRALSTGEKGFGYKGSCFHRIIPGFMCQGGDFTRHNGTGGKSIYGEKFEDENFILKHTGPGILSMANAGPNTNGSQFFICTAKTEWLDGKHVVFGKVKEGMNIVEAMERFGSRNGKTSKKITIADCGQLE
endpointLabel: IC50

These solved cases illustrate the format of a correct answer.
1. CCn1c(-c2cccnc2[C@H](C)OC)c2c3cc(ccc31)-c1csc(n1)C[C@H](NC(=O)[C@H](C(C)C)N(C)C(=O)[C@H]1CCN(C(=O)CNC)C1)C(=O)N1CCC[C@H](N1)C(=O)OCC(C)(C)C2 [Example A99]; 100 to 1000 nM
2. C=CC(=O)N1CC[C@H](C(=O)N(C)[C@H](C(=O)N[C@H]2Cc3cc(O)cc(c3)-c3ccc4c(c3)c(c(C3=C(COC)CCCC3)n4CC)CC(C)(C)COC(=O)[C@@H]3CCCN(N3)C2=O)C(C)C)C1 [Example A064]; 1000 to 10000 nM

In: # IC50 lookup, item CCn1c(-c2cccnc2[C@H](C)OC)c2c3cc(ccc31)-c1csc(n1)C[C@H](NC(=O)[C@H](C(C)C)N(C)C(=O)N1[C@H](C)CN(C)C[C@H]1C)C(=O)N1CCC[C@H](N1)C(=O)OCC(C)(C)C2 [Example A610]
Out: 100 to 1000 nM

In: Need IC50, item CCn1c(-c2cccnc2[C@H](C)OC)c2c3cc(cnc31)-c1csc(n1)C[C@H](NC(=O)[C@H](C(C)C)N(C)C(=O)N1CC(OC)C1)C(=O)N1CCC[C@H](N1)C(=O)OCC(C)(C)C2 [Example A612]
Out: 1000 to 10000 nM
